- systemTested: dimethylarginine dimethylaminohydrolase (P. aeruginosa DDAH) (Pseudomonas aeruginosa)
- Sequence (Q9I4E3 whole entry): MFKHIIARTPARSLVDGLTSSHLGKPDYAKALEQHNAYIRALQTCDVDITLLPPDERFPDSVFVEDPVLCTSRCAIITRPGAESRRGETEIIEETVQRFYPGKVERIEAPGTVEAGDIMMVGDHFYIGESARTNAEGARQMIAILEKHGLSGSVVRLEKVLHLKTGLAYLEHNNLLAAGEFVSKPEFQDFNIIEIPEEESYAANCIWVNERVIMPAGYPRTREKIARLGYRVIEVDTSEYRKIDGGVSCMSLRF
- measurementDescription: dose-dependent inhibition of isolated enzyme
measurementName: pIC50
pIC50 (log units): -log10 of the concentration in mol/L.

Q: Value lookup for pIC50; key = O=c1c2ccccc2[se]n1-c1ccccc1
Ans: 7.02

====

- systemTested: human DDAH-1 (Homo sapiens, UniProt O94760)
- Sequence (O94760 2-285): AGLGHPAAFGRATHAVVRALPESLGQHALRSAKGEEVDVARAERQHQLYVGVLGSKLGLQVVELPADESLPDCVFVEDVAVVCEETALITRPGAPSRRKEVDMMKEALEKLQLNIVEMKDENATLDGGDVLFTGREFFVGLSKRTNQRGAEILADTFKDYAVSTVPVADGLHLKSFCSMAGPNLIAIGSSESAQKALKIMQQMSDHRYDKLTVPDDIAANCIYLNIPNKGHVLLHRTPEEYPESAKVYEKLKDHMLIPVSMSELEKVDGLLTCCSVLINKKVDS
- measurementDescription: dose-dependent inhibition of isolated enzyme
measurementName: IC50
Please answer in the form of a number followed by its unit of measurement.

Q: What IC50 value was documented for this compound, O=c1c2ccccc2[se]n1-c1ccccc1 [ebselen] ?
Ans: 0.33 µM
